Values were extracted from ChEMBL document CHEMBL5247653.

Target: C-X-C chemokine receptor type 3 (Homo sapiens)
Sequence (P49682 whole entry): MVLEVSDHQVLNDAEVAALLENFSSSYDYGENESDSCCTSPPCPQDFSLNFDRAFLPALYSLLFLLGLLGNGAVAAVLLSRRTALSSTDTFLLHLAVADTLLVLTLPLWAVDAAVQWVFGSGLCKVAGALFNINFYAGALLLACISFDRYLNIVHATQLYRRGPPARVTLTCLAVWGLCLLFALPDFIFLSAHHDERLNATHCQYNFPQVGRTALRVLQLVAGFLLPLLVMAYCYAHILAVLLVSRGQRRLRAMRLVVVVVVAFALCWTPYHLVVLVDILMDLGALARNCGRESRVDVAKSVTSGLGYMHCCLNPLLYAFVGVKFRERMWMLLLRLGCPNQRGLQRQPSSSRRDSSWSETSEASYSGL
Assay: Antagonist activity at CXCR3 (unknown origin) in human T cells in venous blood assessed as receptor internalization incubated for 30 mins in presence of CXCL10 by flow cytometric analysis
Format: cell-based, T cell
pIC50: −log10 of the molar value.
quantity: pIC50

1 = CCc1ncn(CC(=O)N2CCN(c3sc(C(F)(F)F)nc3-c3cnc(C(F)(F)F)nc3)C[C@@H]2CCO)n1
2 = CCc1ncn(CC(=O)N2CCN(c3sc(C(F)(F)F)nc3-c3cnc(C(F)(F)F)nc3)C[C@H]2CCO)n1
-- ask Determine, for 1 and 2 , which has the greater value of pIC50. Please indicate the selected item by its label.
-- reply 2

a = Cc1ncn(CC(=O)N2CCN(c3sc(C(F)(F)F)nc3-c3cnc(C(F)(F)F)nc3)C[C@H]2CCO)n1
b = Cc1ccn(CC(=O)N2CCN(c3sc(C(F)(F)F)nc3-c3cnc(C(F)(F)F)nc3)C[C@@H]2CCO)n1
c = C[C@@H]1CN(c2sc(C(F)(F)F)nc2-c2cnc(C(F)(F)F)nc2)CCN1C(=O)Cn1cnc(C(N)=O)n1
d = C[C@@H]1CN(c2sc(C(F)(F)F)nc2-c2cnc(C(F)(F)F)nc2)CCN1C(=O)Cn1cnc(C(C)(C)C)n1
-- ask Order the records by pIC50, with each subsequent value no larger than the one before. Please list each label once, in the requested order.
-- reply a, b, d, c
(a: 7.25, b: 6.84, d: 6.62, c: 5.67)

A = Cc1ncn(CC(=O)N2CCN(c3sc(C(F)(F)F)nc3-c3cnc(C(F)(F)F)nc3)C[C@@H]2CCO)n1
B = Cc1ncn(CC(=O)N2CCN(c3sc(C(F)(F)F)nc3-c3cnc(C(F)(F)F)nc3)C[C@@H]2CO)n1
C = CC(C)c1ncn(CC(=O)N2CCN(c3sc(C(F)(F)F)nc3-c3cnc(C(F)(F)F)nc3)C[C@@H]2CO)n1
-- ask Place the items in sequence of falling pIC50. Output spec: labels arranged per the requested ranking.
-- reply C, B, A

====

Target: Voltage-gated inwardly rectifying potassium channel KCNH2 (Homo sapiens, UniProt Q12809)
Sequence (Q12809 whole entry): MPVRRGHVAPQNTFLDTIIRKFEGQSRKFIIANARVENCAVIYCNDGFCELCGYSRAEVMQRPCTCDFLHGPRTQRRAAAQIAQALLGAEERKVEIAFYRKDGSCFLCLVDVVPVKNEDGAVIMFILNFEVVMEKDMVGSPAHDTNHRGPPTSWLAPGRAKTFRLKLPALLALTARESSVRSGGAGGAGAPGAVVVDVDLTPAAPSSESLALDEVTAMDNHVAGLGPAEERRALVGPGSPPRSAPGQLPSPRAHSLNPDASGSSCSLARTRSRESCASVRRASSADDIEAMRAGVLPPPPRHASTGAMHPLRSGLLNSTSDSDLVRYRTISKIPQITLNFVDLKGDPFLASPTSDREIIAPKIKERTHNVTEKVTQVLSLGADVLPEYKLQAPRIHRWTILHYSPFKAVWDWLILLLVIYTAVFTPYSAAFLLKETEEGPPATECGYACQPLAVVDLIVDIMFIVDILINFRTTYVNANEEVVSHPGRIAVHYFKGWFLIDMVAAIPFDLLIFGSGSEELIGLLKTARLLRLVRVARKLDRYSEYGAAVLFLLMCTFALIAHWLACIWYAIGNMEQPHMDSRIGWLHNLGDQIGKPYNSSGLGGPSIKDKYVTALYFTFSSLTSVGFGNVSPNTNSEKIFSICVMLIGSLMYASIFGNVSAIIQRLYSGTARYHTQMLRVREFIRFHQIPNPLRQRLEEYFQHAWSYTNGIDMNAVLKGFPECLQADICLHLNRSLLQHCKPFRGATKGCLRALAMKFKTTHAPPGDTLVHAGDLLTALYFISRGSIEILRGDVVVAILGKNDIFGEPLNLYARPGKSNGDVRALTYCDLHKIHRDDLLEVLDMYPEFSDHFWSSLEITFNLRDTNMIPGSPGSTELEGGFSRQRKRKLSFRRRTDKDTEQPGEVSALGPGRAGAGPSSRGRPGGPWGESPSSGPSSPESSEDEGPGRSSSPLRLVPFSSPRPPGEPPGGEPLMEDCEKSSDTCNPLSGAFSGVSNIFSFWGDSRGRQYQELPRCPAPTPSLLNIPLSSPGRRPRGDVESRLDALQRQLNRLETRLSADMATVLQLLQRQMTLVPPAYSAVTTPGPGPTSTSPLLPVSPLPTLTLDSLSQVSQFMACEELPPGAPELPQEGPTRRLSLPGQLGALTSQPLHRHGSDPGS
Test: Inhibition of human ERG stably expressed in CHO cells at -80 mV holding voltage by automated QPatch electrophysiological assay
Assay type: toxicity, cell-based
Each entry below lists one item and its recorded IC50 value.

{"cpd smiles": "Cc1ncn(CC(=O)N2CCN(c3sc(C(F)(F)F)nc3-c3cnc(C(F)(F)F)nc3)C[C@@H]2CO)n1", "target or system": "Voltage-gated inwardly rectifying potassium channel KCNH2 (Homo sapiens, UniProt Q12809)", "quantity": "IC50", "reported value": "> 60 µM"}

-- ask Please report IC50 for the following compound: C[C@@H]1CN(c2sc(C(F)(F)F)nc2-c2cnc(C(F)(F)F)nc2)CCN1C(=O)Cn1cnc(CO)n1
-- reply > 60 µM

-- ask Report IC50 for Cc1ncn(CC(=O)N2CCN(c3sc(C(F)(F)F)nc3-c3cnc(C(F)(F)F)nc3)C[C@@H]2CCO)n1
-- reply > 60 µM

====

The following compounds are shown together with reported pIC50 values.
Molecular target: Voltage-gated inwardly rectifying potassium channel KCNH2 (Homo sapiens, UniProt Q12809)
Assay: Inhibition of human ERG stably expressed in CHO cells at -80 mV holding voltage by automated QPatch electrophysiological assay
Assay type: toxicity, cell-based
pIC50: −log10 of the molar value.

Worked cases, pIC50 given:
{"compound": "C[C@@H]1CN(c2sc(C(F)(F)F)nc2-c2cnc(C(F)(F)F)nc2)CCN1C(=O)Cn1cnc(C(N)=O)n1", "reported value": "< 4.22"}
{"compound": "Cc1ncn(CC(=O)N2CCN(c3sc(C(F)(F)F)nc3-c3cnc(C(F)(F)F)nc3)C[C@H]2CO)n1", "reported value": "< 4.22"}

Consider the additional compound presented here.
-- ask Specify the recorded pIC50 for CC(O)c1ncn(CC(=O)N2CCN(c3sc(C(F)(F)F)nc3-c3cnc(C(F)(F)F)nc3)C[C@H]2C)n1 (stereo partly drawn) , system: Voltage-gated inwardly rectifying potassium channel KCNH2 (Homo sapiens, UniProt Q12809).
-- reply < 4.22

====

Molecular target: Voltage-gated inwardly rectifying potassium channel KCNH2 (Homo sapiens, UniProt Q12809)
Assay: Inhibition of human ERG stably expressed in CHO cells at -80 mV holding voltage by automated QPatch electrophysiological assay
Format: toxicity, cell-based
quantity: pIC50
# log scale: pIC50 equals minus log10 of the concentration in mol/L

{"cpd smiles": "CCc1nc(C)n(CC(=O)N2CCN(c3sc(C(F)(F)F)nc3-c3cnc(C(F)(F)F)nc3)C[C@H]2C)n1", "pIC50": 5.06}
{"cpd smiles": "Cc1ccn(CC(=O)N2CCN(c3sc(C(F)(F)F)nc3-c3cnc(C(F)(F)F)nc3)C[C@@H]2CCO)n1", "pIC50": 4.92}

-- ask Give a short answer stating reported pIC50 for O=C(Cn1cnc(C2CC2)n1)N1CCN(c2sc(C(F)(F)F)nc2-c2cnc(C(F)(F)F)nc2)C[C@H]1CCO .
-- reply 5.14

-- ask Report pIC50, nothing else, for this compound: CCc1ncn(CC(=O)N2CCN(c3sc(C(F)(F)F)nc3-c3cnc(C(F)(F)F)nc3)C[C@H]2C)n1
-- reply 4.92

-- ask Return the recorded pIC50 value; entry: C[C@@H]1CN(c2sc(C(F)(F)F)nc2-c2cnc(C(F)(F)F)nc2)CCN1C(=O)Cn1cnc(C(C)(C)C)n1
-- reply 5.12

-- ask Note down pIC50 recorded for CCc1ccn(CC(=O)N2CCN(c3sc(C(F)(F)F)nc3-c3cnc(C(F)(F)F)nc3)C[C@H]2CO)n1
-- reply 5.07
